- TARGET_SYSTEM: α-Glucosidase (Saccharomyces cerevisiae)
- Construct: purchased Sigma (Sigma-Aldrich) G5003
- EXPERIMENTAL_PROTOCOL: biochemical
- APPLIED_CONDITIONS: concentration 10.0 μg·mL-1; read-out: α-glucosidase inhibition rate
READOUT: inhibition at 10 µg/mL (%)
Expressed in %, but write only the number.

Data point: C=C(C)[C@@H]1CC[C@]2(C)CC[C@]3(C)[C@H](CC[C@@H]4[C@@]5(C)CC[C@H](O)C(C)(C)[C@@H]5CC[C@]43C)[C@@H]12 [Compound 4, lupeol] ; inhibition at 10 µg/mL = 58.4

Data point: C=C(C)[C@@H]1CC[C@]2(C(=O)O)CC[C@]3(C)[C@H](CC[C@@H]4[C@@]5(C)CCC(=O)C(C)(C)[C@@H]5CC[C@]43C)[C@@H]12 [Compound 6, betulonic acid] ; inhibition at 10 µg/mL = 60.5

Data point: CC(C)(O)[C@@H]1CC[C@]2(C)CC[C@]3(C)[C@H](CC[C@@H]4[C@@]5(C)CCC(=O)C(C)(C)[C@@H]5CC[C@]43C)[C@@H]12 [Compound 5, 20-hydroxy-lupan-3-one] ; inhibition at 10 µg/mL = 15.8

Data point: CC(C)(O)[C@@H]1CC[C@]2(C)CC[C@]3(C)[C@H](CC[C@@H]4[C@@]5(C)CC[C@H](O)C(C)(C)[C@@H]5CC[C@]43C)[C@@H]12 [Compound 3, monogynol A] ; inhibition at 10 µg/mL = 4.3

Data point: CC(=O)O[C@H]1CC[C@]2(C)[C@H]3CC[C@@H]4[C@@H]([C@@](C)(O)CCC=C(C)C)CC[C@@]4(C)[C@]3(C)CC[C@H]2C1(C)C [Compound 8, dammar-24-ene-3β-acetoxy-20S-ol] ; inhibition at 10 µg/mL = 11.1

###

Give measured inhibition at 6 µg/mL for each item. Keep answers brief.
- TARGET_SYSTEM: α-Glucosidase (Saccharomyces cerevisiae, UniProt P53341)
- Construct: purchased Sigma (Sigma-Aldrich) G5003
- Sequence (P53341 whole entry): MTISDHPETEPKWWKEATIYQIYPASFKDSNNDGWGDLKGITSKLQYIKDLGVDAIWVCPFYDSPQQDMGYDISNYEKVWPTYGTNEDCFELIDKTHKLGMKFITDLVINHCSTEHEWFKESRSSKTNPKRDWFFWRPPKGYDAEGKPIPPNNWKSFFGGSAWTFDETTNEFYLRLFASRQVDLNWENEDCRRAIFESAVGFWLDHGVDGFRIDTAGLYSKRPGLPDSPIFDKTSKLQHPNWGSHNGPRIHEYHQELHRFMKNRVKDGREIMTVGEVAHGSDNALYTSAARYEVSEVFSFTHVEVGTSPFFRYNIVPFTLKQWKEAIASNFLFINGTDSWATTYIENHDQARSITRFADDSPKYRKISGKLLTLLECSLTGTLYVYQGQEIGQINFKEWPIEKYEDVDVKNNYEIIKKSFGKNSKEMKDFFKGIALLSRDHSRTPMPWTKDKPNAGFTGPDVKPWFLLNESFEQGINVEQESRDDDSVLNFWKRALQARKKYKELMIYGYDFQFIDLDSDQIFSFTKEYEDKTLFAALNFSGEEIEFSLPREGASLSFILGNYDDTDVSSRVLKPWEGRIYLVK
- EXPERIMENTAL_PROTOCOL: biochemical
- APPLIED_CONDITIONS: read-out: α-glucosidase inhibition rate
Expressed in %, but write only the number.

Data point: C[C@H]1O[C@H](O[C@H]2[C@H](O)[C@@H](O)[C@@H](O[C@H]3[C@H](O)[C@@H](O)C(O)O[C@@H]3CO)O[C@@H]2CO)[C@H](O)[C@@H](O)[C@@H]1N[C@H]1C=C(CO)[C@@H](O)[C@H](O)[C@H]1O (some centres unmarked) [acarbose, reference compound] ; inhibition at 6 µg/mL = 37.9

Data point: CCC(CC[C@@H](C)[C@H]1CC[C@H]2[C@@H]3CCC4=CC(=O)CC[C@]4(C)[C@H]3CC[C@]12C)C(C)C (stereo partly drawn) [Compound 9, (20R)-24-ethylcholest-4-en-3-one] ; inhibition at 6 µg/mL = 12.2

###

- TARGET_SYSTEM: α-Glucosidase (Saccharomyces cerevisiae, UniProt P53341);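 note: yeast α-glucosidase premixed with inhibitor in phosphate buffer for 15 min at 37 °C, then a further 15 min reaction with p-NPG substrate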
- Construct: purchased Sigma (Sigma-Aldrich) G5003
- EXPERIMENTAL_PROTOCOL: biochemical
- APPLIED_CONDITIONS: read-out: α-glucosidase inhibition rate
READOUT: inhibition at 2 µg/mL (%)
Expressed in %, but write only the number.

Entry CC(=O)O[C@H]1CC[C@]2(C)[C@H]3CC=C4[C@@H]5CC(C)(C)CC[C@]5(C(=O)O)CC[C@@]4(C)[C@]3(C)CC[C@H]2C1(C)C ; assay system α-Glucosidase (Saccharomyces cerevisiae, UniProt P53341); inhibition at 2 µg/mL recorded at 10.1

Entry C[C@H]1O[C@H](O[C@H]2[C@H](O)[C@@H](O)[C@@H](O[C@H]3[C@H](O)[C@@H](O)C(O)O[C@@H]3CO)O[C@@H]2CO)[C@H](O)[C@@H](O)[C@@H]1N[C@H]1C=C(CO)[C@@H](O)[C@H](O)[C@H]1O (stereo partly shown) [acarbose, reference compound] ; assay system α-Glucosidase (Saccharomyces cerevisiae, UniProt P53341); inhibition at 2 µg/mL recorded at 11.1

Entry CCC(CC[C@@H](C)[C@H]1CC[C@H]2[C@@H]3CCC4=CC(=O)CC[C@]4(C)[C@H]3CC[C@]12C)C(C)C (stereo partly drawn) [Compound 9, (20R)-24-ethylcholest-4-en-3-one] ; assay system α-Glucosidase (Saccharomyces cerevisiae, UniProt P53341); inhibition at 2 µg/mL recorded at 6.1

Entry CC[C@H](/C=C/[C@@H](C)[C@H]1CC[C@H]2[C@@H]3CC=C4C[C@@H](O)CC[C@]4(C)[C@H]3CC[C@]12C)C(C)C ; assay system α-Glucosidase (Saccharomyces cerevisiae, UniProt P53341); inhibition at 2 µg/mL recorded at 2.4
